Where do these numbers come from? They come from patent US20240091203A1.

method: Phase 1 plasma pharmacokinetics, multiple-ascending dose (MAD) cohorts
Assay type: in vivo, human
details: MAD 7.5 mg qd, Day 17; mean ± SD; n = 6
Source text: Multiple-ascending dose (MAD) cohorts. The MAD cohorts also used a randomized, double-blind, placebo-controlled, sequential design. Pharmacokinetic analyses. For all study groups, blood samples for PK assessment were obtained pre-dose, up to 12 times daily on day 1, and then at regular intervals throughout the study. […]
assay-endpoint: CLss/F (L/h)
Please give a number only; it is taken to be in L/h.

[in] What CLss/F value was documented for this molecule, CCc1nc(-c2ccc3c(c2)CC[C@H]3NC(=O)c2cnn(C)c2)no1 ?
[out] 3.1
